The values you see were collected from PubChem BioAssay.

- run.description: CREB reporter modulators under forskolin, primary screen, cell-based, PC12, CRE-LacZ reporter, forskolin-stimulated (AID 1146);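 further: PC12 cells with 6xCRE LacZ reporter stimulated by forskolin 10 µM; beta-galactosidase reporter signal reflecting CREB driven transcription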
- measurement.parameters: luminescence, 4.5 h, higher = more signal, called active from +8 up or from −8 down
Calls of active or inactive are those of the source.
measured.metric: z-score

- compound: "CC(=O)n1cc(C(O)C2C=CC3C(=O)N(c4ccccc4)C(=O)C3N2Nc2ccc(C(C)C)cc2)c2ccccc21 (centres undefined)"
  endpoint.value: "-0.247 (inactive)"
- compound: "C=CCNC(=O)[C@@H]1[C@H]2C(=O)O[C@H](c3ccccc3)[C@H](c3ccccc3)N2[C@H](c2ccc(OCCO)cc2)[C@@]12C(=O)N(C(=O)OCCOC)c1ccc(C#CCCO)cc12"
  endpoint.value: "0.0859 (inactive)"
- compound: "COC(=O)C1=CC(CCCO)=CC(c2ccc(CN3CCCC3)cc2)N(Cc2cc3c(cc2Br)OCO3)C=C1C(=O)OC (centres undefined)"
  endpoint.value: "-0.602 (inactive)"
- compound: "C[C@@H]1ON(c2ccc(I)cc2)[C@H](c2ccc(OC(=O)OC(C)(C)C)cc2)[C@H]1C(=O)N1C(=O)OC[C@H]1Cc1ccccc1"
  endpoint.value: "-0.642 (inactive)"
- compound: "O=C1C2C=CC(C(O)c3ccc4c(c3)OCO4)N(Nc3ccccc3)C2C(=O)N1c1ccccc1 (centres undefined)"
  endpoint.value: "0.993 (inactive)"
- compound: "CN(C)C(=O)[C@]1(CCS(=O)(=O)c2ccccc2)N=C(c2ccc(OCCCO)cc2)O[C@@H]1c1ccccc1"
  endpoint.value: "1.1 (inactive)"
- compound: "COCC1=C2[C@@H](CCc3ccccc3)OB(O)C[C@@H]2[C@@H]2C(=O)N(C)C(=O)[C@@H]2C1"
  endpoint.value: "1.08 (inactive)"
- compound: "O=C(O)[C@@H]1C[C@@H]2C(=O)N3CCC[C@H]3C(=O)N2[C@@H]1c1cccc(OCCO)c1"
  endpoint.value: "-0.382 (inactive)"
- compound: "COCCOC(=O)N1C(=O)[C@@]2(c3cc(C#CCNC(N)=O)ccc31)[C@H](c1ccc(OCCO)cc1)N1[C@H](c3ccccc3)[C@H](c3ccccc3)OC(=O)[C@H]1[C@@H]2C(N)=O"
  endpoint.value: "-0.304 (inactive)"
- compound: "COc1ccc(C(=O)Nc2cccc(CN3C(=O)[C@]4(O[C@H](CCn5cc([C@H](O)c6ccccc6)nn5)[C@@H]([Si](C)(C)c5ccc(OC)cc5)[C@@H]4C)c4ccccc43)c2)cc1"
  endpoint.value: "-0.413 (inactive)"
- compound: "[N-]=[N+]=Nc1ccccc1[C@@H]1OC(c2ccc(OCCCO)cc2)=N[C@]1(Cc1ccccc1)C(=O)NCc1ccccc1"
  endpoint.value: "-0.757 (inactive)"
- compound: "CCOC(=O)C[C@H]1[C@H](OC(=O)c2ccccc2-c2ccccc2)[C@@H](NC(=O)c2ccccc2)c2cc(OCCCO)ccc2N1C(=O)c1ccccc1"
  endpoint.value: "0.908 (inactive)"
- compound: "CN(C)C(=O)[C@@]1(Cc2ccccc2)COC(c2ccc(OCCCO)cc2)=N1"
  endpoint.value: "-1.3 (inactive)"
- compound: "C=C[C@@H](OC)[C@H](OC(=O)Nc1ccc(OC)cc1)c1ccc(OC)c(O)c1"
  endpoint.value: "0.177 (inactive)"
- compound: "CCOC(=O)C1=CCN(S(=O)(=O)c2ccc(C)cc2)C1c1ccccc1 (centres undefined)"
  endpoint.value: "-1.12 (inactive)"
- compound: "CCOC(=O)C[C@H]1[C@H](OC(=O)c2ccc(-c3ccccc3)cc2)[C@@H](NC(=O)CC(C)C)c2cc(OCCCO)ccc2N1C(=O)c1ccccc1"
  endpoint.value: "-0.375 (inactive)"
- compound: "CC(C)(C)OC(=O)CC[C@]1(C(=O)N2CCCCC2)COC(c2ccc(OCCCO)cc2)=N1"
  endpoint.value: "0.238 (inactive)"
- compound: "COc1cccc(/C=C(\\C#N)C(=O)Nc2c(C)n(C)n(-c3ccccc3)c2=O)c1"
  endpoint.value: "-0.821 (inactive)"
- compound: "C=C(COC)/C(=C/C[C@H](OC(C)=O)c1cccc(OCCO)c1)c1cnc2ccccc2c1"
  endpoint.value: "0.298 (inactive)"
- compound: "COc1ccc([Si](C)(C)[C@H]2[C@H](CC(=O)N3CCC[C@H]3CO)O[C@@]3(C(=O)N(Cc4ccc(N5CCC5=O)cc4)c4ccccc43)[C@@H]2C)cc1"
  endpoint.value: "-0.404 (inactive)"
- compound: "CCCCCN1CC=CC23O[C@@H]4C=CCOC(=O)[C@@H]4[C@H]2C(=O)N(CCO)[C@@H]3C1=O (some centres undefined)"
  endpoint.value: "-0.585 (inactive)"
- compound: "C=CCC(OC(C)=O)[C@@H]1[C@@H](N(Cc2ccc(-c3cccc(C(F)(F)F)c3)o2)C(=O)c2ccc(C)cc2)c2cc(OCCCO)ccc2N1C(=O)Cc1ccc(OC)cc1 (some centres undefined)"
  endpoint.value: "0.514 (inactive)"
- compound: "COc1cc(C(O)C2C=CC3C(=O)N(Cc4ccccc4)C(=O)C3N2n2cnnc2)cc(OC)c1OC (centres undefined)"
  endpoint.value: "-0.634 (inactive)"
- compound: "CCOC(=O)C=Cc1ccccc1O"
  endpoint.value: "-0.586 (inactive)"
- compound: "COc1ccc(C#Cc2ccc3c(c2)[C@]2(C(=O)N3)[C@H](C(=O)Nc3nc4ccccc4s3)[C@H]3C(=O)O[C@H](c4ccccc4)[C@H](c4ccccc4)N3[C@@H]2c2ccccc2OCCO)cc1"
  endpoint.value: "-0.369 (inactive)"
- compound: "CO[C@H]1O[C@H](CO)[C@@H](OC(=O)c2ccc(Br)cc2)[C@@H]2OC(=O)[C@H](Cc3ccccc3)C/C=C/C[C@@H](Cc3ccccc3)C(=O)O[C@@H]12"
  endpoint.value: "-0.175 (inactive)"
- compound: "O=C(NCCN1CCOCC1)[C@@H]1c2ccccc2C(=O)N(Cc2ccccc2)[C@H]1c1ccc(CO)cc1"
  endpoint.value: "-0.674 (inactive)"
- compound: "COCCOC(=O)N1C(=O)[C@@]2(c3ccccc31)[C@H](c1ccccc1OCCO)N1[C@H](c3ccccc3)[C@H](c3ccccc3)OC(=O)[C@H]1[C@@H]2C(=O)N1CCCCCCC1"
  endpoint.value: "4.93 (inactive)"
- compound: "O=C1[C@@H]2[C@@H](CC(COc3ccccc3)=C3[C@@H](CCc4ccccc4)OB(O)C[C@@H]32)C(=O)N1Cc1ccccc1"
  endpoint.value: "-1.12 (inactive)"
